- assayed-target: human ERβ (Homo sapiens)
- Construct: M250-V595 of human ERα [Green, et al., Nature 320: 134-9 (1986)] and M214-Q530 of human ERβ; Flag (C); made in house; host or cells: E. coli BL21(DE3)
- Sequence (Q92731 214-530): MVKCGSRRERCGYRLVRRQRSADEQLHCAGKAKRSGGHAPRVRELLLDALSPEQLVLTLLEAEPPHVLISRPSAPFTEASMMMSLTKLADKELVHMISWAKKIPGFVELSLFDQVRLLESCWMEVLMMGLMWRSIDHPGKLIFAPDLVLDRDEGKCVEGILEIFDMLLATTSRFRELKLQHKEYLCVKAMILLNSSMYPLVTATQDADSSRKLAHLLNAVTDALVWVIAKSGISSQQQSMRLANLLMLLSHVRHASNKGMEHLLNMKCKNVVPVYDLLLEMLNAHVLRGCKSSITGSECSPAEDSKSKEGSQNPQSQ
- assay: Radioligand binding competition with [3H]-17β-estradiol, ERβ
pIC50: −log10 of the molar value.
assay-endpoint: pIC50

Recorded pIC50, per entry:
[[record]]
smi = "O=C1C(c2ccc(O)cc2)=C(c2ccccc2)c2cc(O)ccc21"
assay_endpoint = "pIC50"
quantitative_result = 8.30

[[record]]
smi = "O=C1C(c2ccc(O)cc2)=C(c2ccccc2)c2ccc(O)cc21"
assay_endpoint = "pIC50"
quantitative_result = 8.10

[[record]]
smi = "CCSC1=C(c2ccc(O)cc2)C(=O)c2cc(O)cc(O)c21"
assay_endpoint = "pIC50"
quantitative_result = 8.70


1 = CSC1=C(c2ccc(O)cc2)C(=O)c2ccc(O)cc21
2 = O=C1C(c2ccc(O)cc2)=C(Br)c2cc(O)ccc21
Lowest pIC50? choose 1 or 2 # answer = label of selected item
2

###

- assayed-target: human ERα (Homo sapiens, UniProt P03372)
- Sequence (P03372 250-595): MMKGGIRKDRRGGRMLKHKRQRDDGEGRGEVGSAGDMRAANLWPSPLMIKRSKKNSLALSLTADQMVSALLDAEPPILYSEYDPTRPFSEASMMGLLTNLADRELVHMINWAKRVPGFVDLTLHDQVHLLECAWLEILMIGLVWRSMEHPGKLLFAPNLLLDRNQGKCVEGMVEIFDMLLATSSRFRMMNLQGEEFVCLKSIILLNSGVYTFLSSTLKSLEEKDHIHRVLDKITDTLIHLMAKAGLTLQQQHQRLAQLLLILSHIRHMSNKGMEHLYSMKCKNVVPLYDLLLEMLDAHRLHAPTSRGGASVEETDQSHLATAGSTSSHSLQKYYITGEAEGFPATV
- assay: Radioligand binding competition with [3H]-17β-estradiol, ERα
- details: read-out: ER-α IC50
assay-endpoint: IC50 (nM)
Dear colleague, please return just the value in nM, with no unit written.

Recorded IC50 of O=C1C(c2ccc(O)cc2)=C(c2ccccc2)c2cc(O)cc(O)c21 , please.
3

###

- assayed-target: human ERα (Homo sapiens, UniProt P03372)
- assay: Radioligand binding competition with [3H]-17β-estradiol, ERα
- details: competition with [3H]-17β-estradiol, human ERα ligand binding domain; read-out: ER-α IC50
pIC50: −log10 of the molar value.
assay-endpoint: pIC50

A = CCSC1=C(c2ccc(O)cc2)C(=O)c2cc(O)cc(O)c21
B = CC1=C(c2ccc(O)cc2)C(=O)c2c(O)cc(O)cc21
Lowest pIC50? choose A or B # answer = label of selected item
B
(B: 7.51, A: 8.52)

a = O=C1C(c2ccc(O)cc2)=C(c2ccccc2)c2ccc(O)cc21
b = CC1=C(c2ccc(O)cc2)C(=O)c2cc(O)c(O)cc21
c = O=C1C(c2ccc(O)cc2)=C(Br)c2c(O)cc(O)cc21
// smallest pIC50 at index 0, largest at the end # answer = labels listed in requested order
c, b, a

###

- assayed-target: human ERβ (Homo sapiens)
- Construct: M250-V595 of human ERα [Green, et al., Nature 320: 134-9 (1986)] and M214-Q530 of human ERβ; Flag (C); made in house; host or cells: E. coli BL21(DE3)
- assay: Radioligand binding competition with [3H]-17β-estradiol, ERβ
- details: competition with [3H]-17β-estradiol, human ERβ ligand binding domain; read-out: ER-β IC50
assay-endpoint: IC50 (nM)

A = CC1=C(c2ccc(O)cc2)C(=O)c2cc(O)c(O)cc21 [Example 22]
B = CCNC1=C(c2ccc(O)cc2)C(=O)c2cc(O)ccc21 [Example 5]
Lowest IC50? choose A or B # answer = label of selected item
A
(A: 131 nM, B: 2700 nM)

I = CCSC1=C(c2ccc(O)cc2)C(=O)c2ccc(O)cc21 [Example 7]
II = CSC1=C(c2ccc(O)cc2)C(=O)c2cc(O)ccc21 [Example 8]
III = O=C1C(c2ccc(O)cc2)=C(Br)c2c(O)cc(O)cc21 [Example 15]
// smallest IC50 at index 0, largest at the end # answer = labels listed in requested order
II, I, III
